assay.text: Substrate specificity of WNanoKAZ mutants, crude enzyme solution (Example 11)
Format: biochemical
cond: substrate CTZ, Int.
measured.metric: Relative luminescence activity, CTZ, Int.
Just the number, please, no unit attached.

Item KAZ: 19 kDa protein of native Oplophorus luciferase having luminescence activity; SEQ ID NO: 2 (protein, listed as Oplophorus gracilirostris) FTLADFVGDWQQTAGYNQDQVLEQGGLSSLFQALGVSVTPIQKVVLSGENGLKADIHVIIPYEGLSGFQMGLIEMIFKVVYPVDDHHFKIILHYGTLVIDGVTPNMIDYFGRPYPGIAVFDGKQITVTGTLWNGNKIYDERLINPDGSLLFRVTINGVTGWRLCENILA has what recorded Relative luminescence activity, CTZ, Int.?
1.0
